target.under.test: Hexose transporter 1 (Plasmodium falciparum)
assay.notes: ST_JUDE_LEISH: Cytotoxicity at 2uM final concentration against transgenic Leishmania Mexicana promastigotes LmPfHT that are glucose transport deficient and complemented with the Plasmodium falciparum hexose transporter. Activity is measured by DNA content using SYBR green in vitro
Assay type: functional
assay.endpoint: inhibition (%)

>>> print(df.to_string())
                                   compound  assay_endpoint  observed_measurement
0  CN(C)CCOc1cc(NC(=O)Nc2ccc3c(c2)CCCC3=O)ccc1I      inhibition                  7.25
1         CCOC(=O)CNC(=O)c1cc(=O)c2ccccc2o1      inhibition                  0.78
2    COc1ccc2ccccc2c1CON1C(=N)N=C(N)NC1(C)C      inhibition                  1.46
3  COC(=O)CCCCCOc1cc(Cc2cnc(N)nc2N)cc(OC)c1OC      inhibition                 -5.95
4  COc1ccc(CCN2CCC(CN(C)Cc3cnn(-c4ccccc4)c3)CC2)cc1      inhibition                  6.13
5  CN(Cc1cccc(O)c1)C1CCN(c2cc(NC(=O)c3ccc(F)cc3)ccn2)C1 (stereo not given)      inhibition                   2.9
6  COc1ccccc1C1CCN(C2CCC(NC(=O)c3ccc4[nH]c(-c5ccc(C)cc5)nc4c3)CC2)CC1 (stereo not given)      inhibition                  3.38
7       CCCC(=O)c1cnc2cc(O)ccc2c1Nc1ccccc1C      inhibition                  6.97
8  CC(C)c1ccc(C=CC(=O)N2CCC(CCN3CCC(c4c[nH]c5ccccc45)CC3)CC2)cc1      inhibition                 -1.09
9  Cc1cc(N[C@@H](CC(C)C)C(=O)NCc2cccs2)nc(NCCc2cccs2)n1      inhibition                  5.28

###

target.under.test: Hexose transporter 1 (Plasmodium falciparum)
assay.notes: ST_JUDE_LEISH: Cytotoxicity at 2uM final concentration against transgenic Leishmania Mexicana promastigotes LmPfHT that are glucose transport deficient and complemented with the Plasmodium falciparum hexose transporter. Activity is measured by DNA content using SYBR green in vitro
Format: functional
assay.endpoint: inhibition (%)

>>> df
                                    compound  assay_endpoint  observed_measurement
 0  COc1ccc(-c2cccc(NC(=O)c3cccc(C#N)c3)c2)cc1CN1CCNCC1      inhibition                  11.2
 1  CCCC1(NC[C@@H](O)[C@H](Cc2ccccc2)NC(=O)c2cc(NCC)cc(N3CCCCS3(=O)=O)c2)CC1      inhibition                  1.33
 2  Cc1ccc(Nc2nc(N/N=C/c3cccc(O)c3)nc(Nc3ccc([N+](=O)[O-])cc3)n2)cc1C      inhibition                  3.36
 3  COc1ccc(Nc2nc(NN=Cc3cc(Br)c(O)cc3O)nc(Nc3ccc([N+](=O)[O-])cc3)n2)cc1      inhibition                  0.96
 4  Nc1ccc(-c2cnc3[nH]cc(-c4ccc(C(=O)O)cc4)c3c2)cn1      inhibition                  0.34
 5  Cc1cccc2nc(-c3ccc(-c4ccc(CNCc5ccc(CN)cc5)cc4)cc3)[nH]c12      inhibition                  5.94
 6          Cc1cc(Nc2ccc(C)c(Cl)c2)n2ncnc2n1      inhibition                  -1.7
 7  CC(C)N1CCN(C(CN2CCN(CCCOc3ccccc3-c3ccccc3)CC2)c2ccc(F)cc2)CC1 (stereo not drawn)      inhibition                  5.02
 8  Cc1[nH]c(C)c(-c2ccc(-c3ccc(Cl)cc3)cc2)c(=O)c1Cl      inhibition                   0.3
 9  O=C(Nc1ccc2c(c1)CN(Cc1ccc(N3CCCC3)o1)CCC2)c1ccoc1      inhibition                  12.8
10  CS(=O)(=O)c1ccc(CCNCc2ccc(-c3ccc(CN(C(=O)C4CC(=O)c5ccccc54)C4CCN(Cc5ccccc5)CC4)cc3)nc2)cc1 (stereo not drawn)      inhibition                  1.34
11  CC(Cc1ccc(C(=O)OCCOC(=O)c2ccc(CC(C)NCC(O)c3cccc(C(F)(F)F)c3)cc2)cc1)NCC(O)c1cccc(C(F)(F)F)c1 (stereo not drawn)      inhibition                 -0.31
12       COc1ccc(COc2cc(NCCCN)nc3ccccc23)cc1      inhibition                  6.16
13  Cc1cc(OCCN2CCCCC2)ccc1NC(=O)c1cccc2c(=O)n(Cc3ccc(Cl)cc3)cnc12      inhibition                   104
14  COCCN(C)CCCOc1cc2c(cc1OC)ncn2-c1cc(OCc2ccccc2C(F)(F)F)c(C(N)=O)s1      inhibition                  4.55
15  Fc1cccc(COc2ccc(Nc3ncnc4ccc(-c5nnc(C(F)(F)F)o5)cc34)cc2Cl)c1      inhibition                  4.57
16  CS(=O)(=O)Cc1ccc(Nc2nccc(-c3c(-c4cccc(NC(=O)C5CCCCC5)c4)nn4ncccc34)n2)cc1      inhibition                  5.62
17  O=C(/C=C/c1ccc(Cl)c(Cl)c1)NCCCCCN1CCC(NC(=O)Nc2ccccc2Cl)CC1      inhibition                  0.55

###

target.under.test: Solute carrier family 2, facilitated glucose transporter member 1 (Homo sapiens) (UniProt P11166)
Sequence (P11166 whole entry): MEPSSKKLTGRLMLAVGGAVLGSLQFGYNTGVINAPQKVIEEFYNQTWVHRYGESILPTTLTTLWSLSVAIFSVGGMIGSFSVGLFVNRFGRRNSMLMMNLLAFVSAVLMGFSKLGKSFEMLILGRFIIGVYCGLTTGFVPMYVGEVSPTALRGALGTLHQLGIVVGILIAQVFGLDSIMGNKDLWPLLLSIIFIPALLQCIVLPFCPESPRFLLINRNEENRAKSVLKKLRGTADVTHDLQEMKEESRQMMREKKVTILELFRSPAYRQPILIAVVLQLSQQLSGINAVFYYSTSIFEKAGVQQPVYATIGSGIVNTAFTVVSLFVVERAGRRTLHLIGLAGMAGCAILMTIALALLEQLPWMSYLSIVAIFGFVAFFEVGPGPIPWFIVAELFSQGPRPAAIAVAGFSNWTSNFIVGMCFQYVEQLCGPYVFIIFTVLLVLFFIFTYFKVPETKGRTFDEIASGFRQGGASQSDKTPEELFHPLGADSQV
assay.notes: ST_JUDE_LEISH: Cytotoxicity at 2uM final concentration against transgenic Leishmania Mexicana promastigotes LmGLUT1 that are glucose transport deficient and complemented with the human glucose transporter GLUT1. Activity is measured by DNA content using SYBR green in vitro
Assay type: functional
Here the recorded inhibition is given for each entry.
assay.endpoint: inhibition (%)

                                   compound  assay_endpoint  scale_unit  observed_measurement
0  COc1c(C2CCN(CCCCNC(=O)c3ccc(-c4ccc(Cl)cc4)c(OCCN(C)C)c3)CC2)ccc2c1CCCC2      inhibition           %                  9.22
1  CC(=O)Nc1cccc(-c2cnc(N)c3cc(-c4ccc5c(c4)OCO5)ccc23)c1      inhibition           %                   7.5
2  COC(=O)c1cccc(CNCc2ccc(-c3ccc(-c4nc5cccc(C)c5[nH]4)cc3)cc2)c1      inhibition           %                  6.68
3  CN1CCC(C(=O)Nc2cccc(-c3ccc(-c4nc5ccccc5[nH]4)cc3)c2)CC1      inhibition           %                 -0.41
4  CCOc1cccc(C(=O)Nc2ccc(-c3nc4ccccc4[nH]3)cc2)c1      inhibition           %                  4.46
5  CCn1cc(CN2C(=O)C(c3ccccc3)(c3ccccc3)N=C2N)cn1      inhibition           %                  1.83
6  CCC[C@@H]([C@@H](CC1CCCCC1)C(=O)N[C@H](C(=O)Nc1nccs1)[C@@H](C)OCc1ccccc1)N(O)C=O      inhibition           %                  6.17
7  CN(C)C(CNc1ncnc2cc(Cl)ccc12)Cc1ccccc1 (centres undefined)      inhibition           %                  4.67
8  CCC[C@@H](C(=O)NCCc1cccc(OC)c1)N1C(=O)c2c(ccc(OC)c2OC)C1C(=O)Nc1c(C)cccc1C (some centres undefined)      inhibition           %                   0.5

###

target.under.test: Glucose transporter (Leishmania mexicana)
assay.notes: ST_JUDE_LEISH: Cytotoxicity at 2uM final concentration against transgenic Leishmania Mexicana promastigotes LmGT2 that are glucose transport deficient and complemented with the L. Mexicana glucose transporter 2. Activity is measured by DNA content using SYBR green in vitro
Format: functional
assay.endpoint: inhibition (%)

                                    compound  assay_endpoint  observed_measurement
 0  CC(C)(CNC(=O)/C=C/c1ccc(C(F)(F)F)cc1)CNc1cc(=O)c2ccccc2[nH]1      inhibition                  1.66
 1  Cc1cccc2nc(-c3ccc(-c4cccc(NC(=O)C(C)CN5CCN(C)CC5)c4)cc3)[nH]c12 (stereo not given)      inhibition                  5.85
 2  CN(C(=O)/C=C/c1ccccc1F)C1CCN(CCCCCNC(=O)/C=C/c2ccc(Cl)c(Cl)c2)CC1      inhibition                  5.34
 3  O=C(Nc1ccc(Cn2ncc(N3CCCNCC3)c(Cl)c2=O)cc1)Nc1cccc(C(F)(F)F)c1      inhibition                 -2.08
 4  O=C(Nc1cccc(C2=NCCN2)c1)Nc1cccc(C2=NCCN2)c1      inhibition                   1.1
 5  O=[N+]([O-])c1ccc(CNCCCCCCNCc2ccc([N+](=O)[O-])c3ccccc23)c2ccccc12      inhibition                  7.99
 6  CN(C)c1ccc(-c2nnc(Sc3ccc(C#N)c([N+](=O)[O-])c3)n2Cc2ccco2)cc1      inhibition                  0.63
 7  CC(C)NCc1ccc(-c2ccc(NC(=O)c3cccc(Cl)c3)cc2)cc1      inhibition                 -3.53
 8            Cc1ccc(Nc2nc(-c3ccccn3)cs2)nc1      inhibition                  69.3
 9  Oc1ccc(CCNCCCCCCNCCc2ccc(Cl)c3ccccc23)cc1O      inhibition                  -2.9
10  CCC(C)CN1CCCN(c2ccc(NC(=O)c3cccs3)cc2)CC1 (stereo not given)      inhibition                  5.89
11              Nc1nc(N)c2c(ccc3[nH]ccc32)n1      inhibition                  2.25
12  CCCCCn1c(Sc2ccc(C#N)c([N+](=O)[O-])c2)nnc1-c1ccc(Cl)cc1      inhibition                  0.12
13               CN(C)CCCNc1ccnc2cc(Cl)ccc12      inhibition                 -1.76
14  COc1ccc(NC(=O)c2ccc(-c3nc(-c4ccccc4)cs3)cc2)cc1N1CCN(C)CC1      inhibition                  9.79
15  Cc1cccc2nc(-c3ccc(-c4cccc(NC(=O)COc5ccccc5C(N)=O)c4)s3)[nH]c12      inhibition                   6.9
16  N=c1c(C(=O)NCc2ccccc2)cc2c(=O)n3ccccc3nc2n1CCc1ccccc1      inhibition                  2.34
17  CN1CCC(N2CCN(C(=O)c3cccc(-c4cccc(-c5nc6ccccc6[nH]5)c4)c3)CC2)CC1      inhibition                  2.11
18          Cc1nc(N)nc(N)c1-c1ccc(Cl)c(Cl)c1      inhibition                  5.34
19  Cc1cccc2nc(-c3cccc(-c4cccc(NC(=O)CCc5c[nH]cn5)c4)c3)[nH]c12      inhibition                  1.56

Data origin: ChEMBL document CHEMBL3433997
